test system: BRD pathogens, M. haemolytica and P. multocida; test: MIC screening panel of BRD pathogens (antibacterial / non-antibacterial); conditions: read-out: antibacterial / non-antibacterial (MIC for the BRD pathogens)
endpointLabel: MIC

{"structureNotation": "CCCNC[C@]1(O)[C@H](C)O[C@@H](O[C@H]2[C@H](C)[C@@H](O[C@@H]3O[C@H](C)C[C@H](N(C)C(=O)N(c4ccccc4)C(C)C)[C@H]3O)[C@](C)(O)C[C@@H](C)CN[C@H](C)[C@@H](O)[C@](C)(O)[C@@H](CC)OC(=O)[C@@H]2C)C[C@@]1(C)OC", "MIC": "> 64 µg/mL"}

Now look at this one.
Input line: Can you look up the measured MIC of CCCNC[C@]1(O)[C@H](C)O[C@@H](O[C@H]2[C@H](C)[C@@H](O[C@@H]3O[C@H](C)C[C@H](N(C)C(=O)Nc4ccccc4F)[C@H]3O)[C@](C)(O)C[C@@H](C)CN[C@H](C)[C@@H](O)[C@](C)(O)[C@@H](CC)OC(=O)[C@@H]2C)C[C@@]1(C)OC for me?
Output line: > 64 µg/mL

====

Test system: IL-6
Experiment: LPS-stimulated whole bovine blood assay, MSD cytokine detection
Assay type: cell-based
Details: Bos taurus, read-out: IL-6 (IC50 μM)
Description: In order to correlate RNA sequencing data to cytokine changes the whole blood assay was utilized. […] The enhancement result represents an overall stimulation of cytokine levels due to cellular stress or potential toxicity with increasing concentrations of the compound, representing a typical bell shape response curve for immunomodulatory activity.
Would you mind telling me the reported IC50 of each entry?
Give bare numbers, in µM.

{"molecule": "CC[C@H]1OC(=O)[C@H](C)[C@@H](O[C@H]2C[C@@](C)(OC)[C@](O)(Cn3cnnn3)[C@H](C)O2)[C@H](C)[C@@H](O[C@@H]2O[C@H](C)C[C@H](N(C)C(=O)N(C)c3ccccc3)[C@H]2O)[C@](C)(O)C[C@@H](C)CN[C@H](C)[C@@H](O)[C@]1(C)O [Example J-29]", "IC50, µM": 56}

--- query ---
Input line: What IC50 appears in the records for this molecule with IL-6? CC[C@H]1OC(=O)[C@H](C)[C@@H](O[C@H]2C[C@@](C)(OC)[C@](O)(Cn3ncnn3)[C@H](C)O2)[C@H](C)[C@@H](O[C@@H]2O[C@H](C)C[C@H](N(C)C(=O)N(C)c3ccccc3)[C@H]2O)[C@](C)(O)C[C@@H](C)CN[C@H](C)[C@@H](O)[C@]1(C)O [Example J-30]
Output line: 111

====

For each entry below, report its MIC value.
test system: BRD pathogens, M. haemolytica and P. multocida; test: MIC screening panel of BRD pathogens (antibacterial / non-antibacterial); details: read-out: antibacterial / non-antibacterial (MIC for the BRD pathogens)

Example entries and their recorded answers appear below.
{"structureNotation": "CCOC[C@]1(O)[C@H](C)O[C@@H](O[C@H]2[C@H](C)[C@@H](O[C@@H]3O[C@H](C)C[C@H](N(C)C(=O)N(C)c4ccc(C(F)(F)F)cc4)[C@H]3O)[C@](C)(O)C[C@@H](C)CN[C@H](C)[C@@H](O)[C@](C)(O)[C@@H](CC)OC(=O)[C@@H]2C)C[C@@]1(C)OC", "MIC": "> 64 µg/mL"}
{"structureNotation": "CC[C@H]1OC(=O)[C@H](C)[C@@H](O[C@H]2C[C@@](C)(OC)[C@](O)(CNCCCn3ccccc3=O)[C@H](C)O2)[C@H](C)[C@@H](O[C@@H]2O[C@H](C)C[C@H](N(C)C(=O)N(C)c3ccccc3)[C@H]2O)[C@](C)(O)C[C@@H](C)CN[C@H](C)[C@@H](O)[C@]1(C)O", "MIC": "> 64 µg/mL"}

Now, please, on to the next compound.
Input line: State the recorded MIC for this entry: CCCNC[C@]1(O)[C@H](C)O[C@@H](O[C@H]2[C@H](C)[C@@H](O[C@@H]3O[C@H](C)C[C@H](N(C)C(=O)Nc4cccc(C#N)c4)[C@H]3O)[C@](C)(O)C[C@@H](C)CN[C@H](C)[C@@H](O)[C@](C)(O)[C@@H](CC)OC(=O)[C@@H]2C)C[C@@]1(C)OC
Output line: > 64 µg/mL
